tested on: IGROV-1; assay: NCI tumour cell line growth inhibition, 48 h
Active and inactive are the calls of the source. Cut-off read from the data, not from the text of the source: active = GI50 up to about 1.1 µM and inactive = higher.
GI50 by entry:

// known answers, use as guide
> print(dat)
                                   compound  value.kind           test.value
1                CCOC(=O)C1=C(C)Nc2ccccc2S1        GI50  > 100 µM (inactive)
2  CCC12C=CCN3CCC4(c5cc(C(c6ccc(OC)cc6)C6Cc7ccccc7N6)c(OC)cc5N(C)C4C(O)(C(=O)OC)C1O)C32 (stereo not given)        GI50   16.9 µM (inactive)

-- ask Read the entry O=C1C[C@@H]2[C@@H](C=CC23CC3)N1O and write its reported GI50.
-- reply > 100 µM (inactive)

-- ask Check the records and state GI50 for Cc1nc2ccc(C(F)(F)F)cc2nc1NCc1ccc(Cl)c(Cl)c1
-- reply 16.6 µM (inactive)

-- ask Answer with reported GI50 of CCCCOC(=O)NC(Nc1ccc(S(=O)(=O)Nc2ncccn2)cc1)(C(F)(F)F)C(F)(F)F
-- reply > 100 µM (inactive)

-- ask Return the recorded GI50 value; entry: O=C(/C=C/c1ccc(O)c(O)c1)NC(COC(=O)/C=C/c1ccc(O)c(O)c1)C(=O)O (stereo not given)
-- reply > 100 µM (inactive)

-- ask Give recorded GI50. C=C1C(=O)O[C@H]2C1C[C@@H](O)[C@@]1(C)OC1CC[C@@]1(C)O[C@H]21 (stereo not given in full)
-- reply > 10 µM (inactive)

-- ask Look up and report measured GI50 for this entry: CC1=NN(c2nc(N)nc(/C(C#N)=C/c3ccc([N+](=O)[O-])o3)n2)C(C)(C)C1
-- reply 2.05 µM (inactive)

-- ask Respond only with GI50 recorded for Oc1c(OCc2nnc(CCCCCCCCc3nnc(COc4ccc5ccccc5c4O)n3Nc3ccccc3)n2Nc2ccccc2)ccc2ccccc12
-- reply 12 µM (inactive)

-- ask Please list GI50 recorded for the compound O=C(N/C(=C\c1ccc2c(c1)OCO2)c1nc2ccccc2[nH]1)c1ccccc1
-- reply 27.7 µM (inactive)
